Hey, just so you know, these numbers are from patent US10544143B2.

# measurement_target: human TLR7 (Homo sapiens (Human), UniProt Q9NYK1)
# Sequence (Q9NYK1 27-1049): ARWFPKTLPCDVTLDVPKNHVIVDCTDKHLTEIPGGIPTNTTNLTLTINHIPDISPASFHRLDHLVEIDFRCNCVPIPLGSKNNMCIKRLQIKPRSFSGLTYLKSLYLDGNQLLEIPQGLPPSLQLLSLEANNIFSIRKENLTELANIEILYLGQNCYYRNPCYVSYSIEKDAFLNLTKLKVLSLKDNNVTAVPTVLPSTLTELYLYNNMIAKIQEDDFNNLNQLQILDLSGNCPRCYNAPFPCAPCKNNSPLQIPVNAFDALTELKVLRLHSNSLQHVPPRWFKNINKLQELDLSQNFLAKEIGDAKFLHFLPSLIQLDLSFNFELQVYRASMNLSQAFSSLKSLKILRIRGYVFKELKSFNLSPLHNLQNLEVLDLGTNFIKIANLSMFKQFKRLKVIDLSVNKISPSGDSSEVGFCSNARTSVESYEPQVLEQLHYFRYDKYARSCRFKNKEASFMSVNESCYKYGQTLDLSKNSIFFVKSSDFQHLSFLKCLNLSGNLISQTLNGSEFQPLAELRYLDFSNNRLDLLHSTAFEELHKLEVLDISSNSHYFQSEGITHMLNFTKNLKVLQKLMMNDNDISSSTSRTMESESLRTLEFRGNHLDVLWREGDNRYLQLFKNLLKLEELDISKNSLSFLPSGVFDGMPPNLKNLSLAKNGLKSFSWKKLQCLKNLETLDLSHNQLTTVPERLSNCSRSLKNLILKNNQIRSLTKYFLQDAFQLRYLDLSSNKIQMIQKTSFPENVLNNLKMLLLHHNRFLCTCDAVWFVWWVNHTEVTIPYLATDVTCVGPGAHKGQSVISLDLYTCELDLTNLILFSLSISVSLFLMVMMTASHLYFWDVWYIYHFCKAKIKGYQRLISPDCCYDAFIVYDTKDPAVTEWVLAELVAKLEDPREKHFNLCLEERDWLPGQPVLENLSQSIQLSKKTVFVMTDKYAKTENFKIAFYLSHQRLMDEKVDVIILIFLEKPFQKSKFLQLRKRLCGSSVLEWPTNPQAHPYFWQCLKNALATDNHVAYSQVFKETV
# test_method_notes: TLR7 inhibition reporter assay (HEK-Blue SEAP)
# Type: cell-based
# settings: HEK-Blue cells overexpressing human TLR7, gardiquimod 7.5 μM stimulation, SEAP reporter
Checkbox rule: IC50 lower than 4 nM = 1 (yes); IC50 not lower than 4 nM = 0 (no).

// below: answered molecules
molecule	group_label
COc1cc(-c2[nH]c3ccc(C4CCC(N(C)C)CC4)nc3c2C(C)C)cn2ncnc12 (stereo not drawn) [Example 187]	1 (yes)
COc1cc(-c2[nH]c3ccc(N4CCN(C5CCC(O)CC5)CC4)nc3c2C(C)C)cn2ncnc12 (stereo not drawn)	1 (yes)
CNC1CCC(c2ccc3[nH]c(-c4cn(C)c5nccnc45)c(C(C)C)c3n2)CC1 (stereo not drawn) [Example 300]	0 (no)

Consider Cc1c(-c2[nH]c3ccc(C4CCC(NCCC(F)(F)F)CC4)nc3c2C(C)C)cn2ncnc2c1C (stereo not drawn) [Example 373] . Does its IC50 lie strictly below 4 nM?
0 (no)

# repeat for "Cc1c(-c2[nH]c3ccc(N4CCN(C(=O)CCN(C)C)CC4)nc3c2C(C)C)cn2ncnc2c1C"
1 (yes)

# repeat for COc1cc(-c2[nH]c3ccc(C4CCC(N(C)CC(N)=O)CC4)nc3c2C(C)C)cn2ncnc12 (stereo not drawn) [Example 212]
1 (yes)

###

# measurement_target: human TLR9 (Homo sapiens (Human), UniProt Q9NR96)
# Sequence (Q9NR96 26-1032): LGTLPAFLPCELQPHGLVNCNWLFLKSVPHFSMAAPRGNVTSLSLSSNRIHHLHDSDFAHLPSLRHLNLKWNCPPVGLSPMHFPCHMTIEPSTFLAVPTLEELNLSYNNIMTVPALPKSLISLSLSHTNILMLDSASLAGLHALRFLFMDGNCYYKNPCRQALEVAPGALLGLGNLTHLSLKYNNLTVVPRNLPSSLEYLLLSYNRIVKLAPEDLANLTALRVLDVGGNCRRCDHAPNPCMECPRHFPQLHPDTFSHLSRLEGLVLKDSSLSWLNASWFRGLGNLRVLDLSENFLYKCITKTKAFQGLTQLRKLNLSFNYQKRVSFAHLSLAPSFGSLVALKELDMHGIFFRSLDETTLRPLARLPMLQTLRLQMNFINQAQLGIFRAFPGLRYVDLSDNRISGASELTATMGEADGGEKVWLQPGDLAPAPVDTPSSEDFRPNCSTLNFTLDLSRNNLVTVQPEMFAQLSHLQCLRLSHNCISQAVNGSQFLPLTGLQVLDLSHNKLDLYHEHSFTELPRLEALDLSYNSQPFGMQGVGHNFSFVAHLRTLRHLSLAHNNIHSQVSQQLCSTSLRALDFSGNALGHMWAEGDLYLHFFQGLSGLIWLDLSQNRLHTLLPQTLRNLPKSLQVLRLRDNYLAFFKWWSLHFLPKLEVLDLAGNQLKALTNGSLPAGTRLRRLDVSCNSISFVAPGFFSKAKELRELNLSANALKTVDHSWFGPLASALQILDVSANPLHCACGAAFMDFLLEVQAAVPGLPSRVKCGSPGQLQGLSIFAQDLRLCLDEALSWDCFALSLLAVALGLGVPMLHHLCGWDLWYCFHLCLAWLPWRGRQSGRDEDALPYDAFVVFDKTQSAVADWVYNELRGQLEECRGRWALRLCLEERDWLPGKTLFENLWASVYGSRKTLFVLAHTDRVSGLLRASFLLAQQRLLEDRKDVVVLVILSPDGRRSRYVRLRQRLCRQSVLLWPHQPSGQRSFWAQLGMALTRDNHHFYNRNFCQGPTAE
# test_method_notes: TLR9 inhibition reporter assay (HEK-Blue SEAP);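 note: SEAP driven by an IFN-β minimal promoter with NF-κB and AP-1 sites, read after 22 h, compounds dosed 0.05 nM–50 µM, inhibition scaled between agonist plus DMSO and reference-inhibitor wells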
# settings: read-out: TLR9 IC50; HEK-Blue cells overexpressing human TLR9, SEAP reporter, ODN2006 5 nM
Checkbox rule: IC50 lower than 3 µM = 1; IC50 not lower than 3 µM = 0.

Consider "Cc1c(-c2[nH]c3ccc(N4C[C@@H](C)N(C(=O)CCN5CCCC5)C[C@@H]4C)nc3c2C(C)C)cn2ncnc2c1C" . Does its IC50 lie strictly below 3 µM?
0

###

I'd be grateful if you could share measured pIC50 for these entries.
# measurement_target: human TLR7 (Homo sapiens (Human))
# test_method_notes: TLR7 inhibition reporter assay (HEK-Blue SEAP)
# Format: cell-based
# settings: HEK-Blue human TLR7 cells, gardiquimod 7.5 μM
Answers are plain numbers, as −log10 of the molar value.

compound	pIC50
Cc1c(-c2[nH]c3ccc(N4C[C@@H]5CC4CN5)nc3c2C(C)C)cn2ncnc2c1C [Example 984]	9.00

Would you mind giving pIC50 for every compound in the list below?
1. [2H]C1([2H])N(C(=O)CN(C)C)C([2H])([2H])C([2H])([2H])N(c2ccc3[nH]c(-c4cn5ncnc5c(C)c4C)c(C(C)C)c3n2)C1([2H])[2H] (single isomer, unassigned) [Example 858]
2. Cc1c(-c2[nH]c3ccc(N4CCNC(C)C4C)nc3c2C(C)C)cn2ncnc2c1C (stereo not shown) [Example 977]

1: 8.96; 2: 8.85

Would you mind giving pIC50 for every compound in the list below?
1. CCN(C)CC(=O)N1C[C@H](C)N(c2ccc3[nH]c(-c4cn5ncnc5c(C)c4C)c(C(C)C)c3n2)C[C@H]1C [Example 893]
2. CNC(=O)CCN1CCN(c2ccc3[nH]c(-c4cn5ncnc5c(C)c4C)c(C(C)C)c3n2)[C@@H](C)C1 [Example 818]
3. Cc1c(-c2[nH]c3ccc(C4CCC(N5CCC6(COC6)C5)CC4)nc3c2C(C)C)cn2ncnc2c1C (stereo not shown) [Example 1063]
4. Cc1c(-c2[nH]c3ccc(N4[C@@H]5CC[C@H]4CN(C(=O)CN4CC6(COC6)C4)C5)nc3c2C(C)C)cn2ncnc2c1C [Example 920]

9.47
9.11
8.00
8.59

###

I'd be grateful if you could share measured pIC50 for these entries.
# measurement_target: human TLR8 (Homo sapiens (Human))
# Sequence (Q9NR97 27-1041): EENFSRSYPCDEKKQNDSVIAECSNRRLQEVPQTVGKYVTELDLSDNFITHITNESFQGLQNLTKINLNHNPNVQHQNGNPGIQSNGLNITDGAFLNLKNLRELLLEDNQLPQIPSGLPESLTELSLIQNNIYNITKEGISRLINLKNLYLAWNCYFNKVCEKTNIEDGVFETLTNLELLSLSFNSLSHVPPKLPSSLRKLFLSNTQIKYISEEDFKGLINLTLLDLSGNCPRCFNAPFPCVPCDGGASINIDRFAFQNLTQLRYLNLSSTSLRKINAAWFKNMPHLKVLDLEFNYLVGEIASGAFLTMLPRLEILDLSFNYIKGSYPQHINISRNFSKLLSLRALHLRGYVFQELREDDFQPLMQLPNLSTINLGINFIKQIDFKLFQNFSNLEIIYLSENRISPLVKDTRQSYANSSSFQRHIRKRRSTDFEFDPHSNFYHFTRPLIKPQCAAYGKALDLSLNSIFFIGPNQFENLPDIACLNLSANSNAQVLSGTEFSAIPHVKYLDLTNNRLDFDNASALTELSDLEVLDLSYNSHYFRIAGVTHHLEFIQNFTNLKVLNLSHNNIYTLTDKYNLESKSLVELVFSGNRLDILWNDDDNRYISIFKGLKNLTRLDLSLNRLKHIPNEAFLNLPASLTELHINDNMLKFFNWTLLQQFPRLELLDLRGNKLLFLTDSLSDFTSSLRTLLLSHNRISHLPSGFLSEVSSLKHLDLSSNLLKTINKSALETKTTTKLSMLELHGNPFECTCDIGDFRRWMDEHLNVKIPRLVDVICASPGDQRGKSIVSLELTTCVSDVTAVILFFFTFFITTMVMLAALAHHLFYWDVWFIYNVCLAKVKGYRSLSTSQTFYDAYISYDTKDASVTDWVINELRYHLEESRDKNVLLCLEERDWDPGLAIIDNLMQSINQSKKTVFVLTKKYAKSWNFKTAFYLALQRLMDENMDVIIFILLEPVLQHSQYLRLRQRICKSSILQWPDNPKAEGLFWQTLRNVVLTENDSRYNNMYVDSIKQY
# test_method_notes: TLR8 inhibition reporter assay (HEK-Blue SEAP)
# settings: read-out: TLR8 IC50; HEK-Blue cells overexpressing human TLR8, R848 15.9 μM stimulation, SEAP reporter
Answers are plain numbers, as −log10 of the molar value.

Some solved entries appear below for comparison.
molecule	measurement_target	observed_property	observed_measurement
Cc1c(-c2[nH]c3ccc(N4CCN(CCC#N)CC4)nc3c2C(C)C)cn2ncnc2c1C [Example 148]	human TLR8 (Homo sapiens (Human))	pIC50	7.80
COc1cc(-c2[nH]c3ccc(N4CCN(CC(C)C)CC4)nc3c2C(C)C)cn2ncnc12 [Example 109]	human TLR8 (Homo sapiens (Human))	pIC50	8.89
Cc1c(-c2[nH]c3ccc(N4CCN(C(=O)CNCC5CC5)CC4)nc3c2C(C)C)cn2ncnc2c1C [Example 161]	human TLR8 (Homo sapiens (Human))	pIC50	9.04
CNC1CCC(c2ccc3[nH]c(-c4cc(OC)c5ncnn5c4)c(C(C)C)c3n2)CC1 (stereo not drawn) [Example 189]	human TLR8 (Homo sapiens (Human))	pIC50	8.17
COc1cc(-c2[nH]c3ccc(N4CCN(C)CC4)nc3c2C(C)C)cn2ncnc12 [Example 91]	human TLR8 (Homo sapiens (Human))	pIC50	9.28
COc1cc(-c2[nH]c3ccc(C4CCC(N5CC6(C5)CS(=O)(=O)C6)CC4)nc3c2C(C)C)cn2ncnc12 (stereo not drawn) [Example 253]	human TLR8 (Homo sapiens (Human))	pIC50	9.14
Cc1c(-c2[nH]c3ccc(N4CC(N5CCS(=O)(=O)CC5)C4)nc3c2C(C)C)cn2ncnc2c1C [Example 41]	human TLR8 (Homo sapiens (Human))	pIC50	6.75
COc1cc(-c2[nH]c3ccc(C4CCC(N(C)CC(N)=O)CC4)nc3c2C(C)C)cn2ncnc12 (stereo not drawn) [Example 212]	human TLR8 (Homo sapiens (Human))	pIC50	8.17
COc1cc(-c2[nH]c3cc(C)c(C4CCC(NCC5(C)COC5)CC4)nc3c2C(C)C)cn2ncnc12 (stereo not drawn) [Example 312]	human TLR8 (Homo sapiens (Human))	pIC50	8.80
CC(C)c1c(-c2cc(CO)c3ncnn3c2)[nH]c2ccc(N3CCC(NC4CCOCC4)CC3)nc12 [Example 80]	human TLR8 (Homo sapiens (Human))	pIC50	8.80

Would you mind giving pIC50 for every molecule in the list below?
1. COc1cc(-c2[nH]c3ccc(C4CCC(N(C)C(C)C)CC4)nc3c2C(C)C)cn2ncnc12 (stereo not drawn) [Example 170]
2. COCc1cc(-c2[nH]c3ccc(C4CCC(NCC(=O)N(C)C)CC4)nc3c2C(C)C)cn2ncnc12 (stereo not drawn) [Example 230]
3. COc1cc(-c2[nH]c3ccc(C4CCC(N5CCOCC5)CC4)nc3c2C(C)C)cn2ncnc12 (stereo not drawn) [Example 194]
4. Cc1c(-c2[nH]c3ccc(C4CCC(NCCC#N)CC4)nc3c2C(C)C)cn2ncnc2c1C (stereo not drawn) [Example 384]
5. CC(C)c1c(-c2cn(C)c3ncccc23)[nH]c2ccc(C3CCC(NCC4(S(C)(=O)=O)CC4)CC3)nc12 (stereo not drawn) [Example 236]

1: 7.77; 2: 7.48; 3: 7.33; 4: 7.60; 5: 8.55

###

# measurement_target: human TLR7 (Homo sapiens (Human), UniProt Q9NYK1)
# test_method_notes: TLR7 inhibition reporter assay (HEK-Blue SEAP)
# Format: cell-based
# settings: HEK-Blue cells overexpressing human TLR7, gardiquimod 7.5 μM stimulation, SEAP reporter
Checkbox rule: IC50 lower than 10 nM = t; IC50 not lower than 10 nM = f.

compound	group_label
Cc1c(-c2[nH]c3ccc(N4CC(N)C4)nc3c2C(C)C)cn2ncnc2c1C	f
Cc1c(-c2[nH]c3ccc(N4CCC(NCc5csnn5)CC4)nc3c2C(C)C)cn2ncnc2c1C	t

Consider CCn1cc(-c2[nH]c3ccc(C4CCC(N5CC6(COC6)C5)CC4)nc3c2C(C)C)c2cccnc21 (stereo not shown) [Example 294] . Does its IC50 lie strictly below 10 nM?
f

# repeat for "Cc1c(-c2[nH]c3ccc(N4CC(N(C)CC(=O)N(C)C)C4)nc3c2C(C)C)cn2ncnc2c1C"
f

# repeat for "CNC1CN(c2ccc3[nH]c(-c4cc(OC)c5ncnn5c4)c(C(C)C)c3n2)C1"
f

# repeat for COc1cc(-c2[nH]c3cc(C)c(C4CCC(N)CC4)nc3c2C(C)C)cn2ncnc12 (stereo not shown) [Example 323]
t

# repeat for COc1cc(-c2[nH]c3ccc(C4CCC(N)C4)nc3c2C(C)C)cn2ncnc12 (racemic) [Example 7]
t

# repeat for COc1cc(-c2[nH]c3ccc(C4CCC(NC5COC5)CC4)nc3c2C(C)C)cn2ncnc12 (stereo not shown) [Example 186]
t

# repeat for COc1cc(-c2[nH]c3cc(F)c(C4CCC(N5CC6(COC6)C5)CC4)nc3c2C(C)C)cn2ncnc12 (stereo not shown) [Example 344]
t

# repeat for CC(C)c1c(-c2cn(C)c3ncccc23)[nH]c2ccc(C3CCC(NC4COC4)CC3)nc12 (stereo not shown) [Example 184]
t

# repeat for "COc1ncnc(OC)c1CNC1CCN(c2ccc3[nH]c(-c4cn5ncnc5c(C)c4C)c(C(C)C)c3n2)CC1"
f

# repeat for "Cc1c(-c2[nH]c3ccc(N4CCN(C(=O)CN5CCCC5)CC4)nc3c2C(C)C)cn2ncnc2c1C"
t

# repeat for Cc1c(-c2[nH]c3ccc(C4CCC(N(C5CC5)C5COC5)CC4)nc3c2C(C)C)cn2cnnc2c1C (stereo not shown) [Example 237]
f

# repeat for "CC(C)c1c(-c2cc(CO)c3ncnn3c2)[nH]c2ccc(N3CCC(NC4CCOCC4)CC3)nc12"
t

# repeat for "COc1cc(-c2[nH]c3ccc(N4CCN(C(C)C)CC4)nc3c2C(C)C)cn2ncnc12"
t

# repeat for CNC1CCC(c2ccc3[nH]c(-c4cc(OC)c5ncnn5c4)c(C(C)C)c3n2)CC1 (stereo not shown) [Example 189]
t
